Value source: patent US10793568B2

- test target: ligand binding domain of human FXR (Homo sapiens (Human))
- Sequence (Q96RI1 262-486): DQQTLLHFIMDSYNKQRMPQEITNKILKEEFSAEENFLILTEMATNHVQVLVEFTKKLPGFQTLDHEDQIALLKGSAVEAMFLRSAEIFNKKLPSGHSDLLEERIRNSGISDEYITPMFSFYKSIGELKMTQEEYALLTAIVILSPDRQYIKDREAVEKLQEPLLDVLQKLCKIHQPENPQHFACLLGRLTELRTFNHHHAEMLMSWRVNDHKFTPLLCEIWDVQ
- protocol notes: FXR ligand binding assay (LanthaScreen TR-FRET, SRC2-2 peptide recruitment)
- details: extent of activation relative to GW4064; read-out: % Efficacy
Recorded measurements of Emax, one per entry
Express it in %; write the number only.

For record `O=C(NCCS(=O)(=O)O)c1ccc(N2C[C@@H]3C[C@H]2C[C@H]3OCc2c(-c3c(Cl)cccc3Cl)noc2C2CC2)cc1F` the listed Emax is 164

Others:
For record `O=C(NS(=O)(=O)C1CC1)c1ccc(N2C[C@H]3C[C@@H]2C[C@@H]3OCc2c(-c3c(Cl)cccc3Cl)noc2C2CC2)c(F)c1` the listed Emax is 110

For record `NS(=O)(=O)[C@@H]1CCC[C@H]1OC(=O)c1ccc(N2C(=O)[C@@H]3C[C@H]2C[C@H]3OCc2c(-c3c(Cl)cccc3Cl)noc2C2CC2)cc1F` the listed Emax is 203

For record `O=C(O)C1CN(Cc2ccc(N3C[C@@H]4C[C@H]3C[C@H]4OCc3c(-c4c(Cl)cccc4Cl)noc3C3CC3)cc2)C1` the listed Emax is 93

For record `O=C(O)c1cnc(N2C[C@@H]3C[C@H]2C[C@H]3OCc2c(-c3c(Cl)cccc3Cl)noc2C2CC2)nc1` the listed Emax is 118

For record `N#Cc1cc(C(=O)O)ccc1N1C[C@@H]2C[C@H]1C[C@H]2OCc1c(-c2c(Cl)cccc2Cl)noc1C1CC1` the listed Emax is 112
